Molecular target: PDF(Fe) (peptide deformylase) (Escherichia coli, UniProt P0A6K3)
Construct: made in house; host or cells: overproducing E. coli cells
Sequence (P0A6K3 whole entry): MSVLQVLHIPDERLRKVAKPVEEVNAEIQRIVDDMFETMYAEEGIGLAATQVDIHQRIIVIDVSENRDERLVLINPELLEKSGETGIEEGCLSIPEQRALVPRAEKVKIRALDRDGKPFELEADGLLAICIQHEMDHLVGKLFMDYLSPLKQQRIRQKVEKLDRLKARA
Experiment: Enantioselective enzymatic deformylation of N-formyl compounds by PDF(Fe), HPLC analysis
Assay type: biochemical, E. coli
Details: Method A: 100 mM MOPS/NaOH, 2 M Li2SO4, pH 7.2, 37° C.
Below, each entry is listed alongside its reported E (enantioselectivity, kf/ks).
Hey, just send me the number, nothing else.

response.value for CC(NC=O)c1cccc2ccccc12 (stereo not shown) [Example 12, N-formyl-1-(1-naphthyl)-ethylamine] (field: E (enantioselectivity, kf/ks)) = 15

response.value for C[C@@H](CO)NC=O [Example 8, N-formyl-alaninol] (field: E (enantioselectivity, kf/ks)) = 12
